The measurements presented in this section are drawn from paper PMC6364417.

- Test system: 501Mel-GP cells (Dabrafenib-resistant)
- Test: Kinase inhibitor library screening, PrestoBlue cell viability, 1 or 10 μM, 72 h
- Measurement conditions: 501Mel GP, 10μΜ, 72 h
Below is a list of entries, each paired with its recorded cell viability (kinase inhibitor library screening) value.
Quantity measured: cell viability (kinase inhibitor library screening) (%)

>>> numeric_readout("Cc1cnc(NC(=O)Nc2cc(Br)c(C)cc2OC[C@@H]2CNCCO2)cn1")
4.4
>>> numeric_readout("O=c1[nH]c2ccc(Cl)cc2c(N[C@@H]2CN3CCC2CC3)c1-c1nc2ccccc2[nH]1 [CHIR-124, reference compound]")
0.146
>>> numeric_readout("CCc1cc2c(cc1N1CCC(N3CCOCC3)CC1)C(C)(C)c1[nH]c3cc(C#N)ccc3c1C2=O")
72.7
>>> numeric_readout("CNC(=O)c1ccc(-c2cnc3ncc(Cc4ccc5ncccc5c4)n3n2)cc1F")
67.0
>>> numeric_readout("Cc1[nH]nc2ccc(-c3cncc(OC[C@@H](N)Cc4ccccc4)c3)cc12")
0.638
>>> numeric_readout("COc1cc(Nc2ncc3c(n2)-c2ccc(Cl)cc2C(c2c(F)cccc2OC)=NC3)ccc1C(=O)O")
52.7
>>> numeric_readout("Cc1cc(CN2CCN(c3c(Br)cnc4nc(-c5ccc(N6CCN(C)CC6)cc5)[nH]c34)CC2)no1")
-0.454
>>> numeric_readout("Cc1cn(-c2cc(NC(=O)c3ccc(C)c(Nc4nccc(-c5cccnc5)n4)c3)cc(C(F)(F)F)c2)cn1")
74.5
>>> numeric_readout("C[C@@H]1CN(CC(=O)Nc2ccc3c(c2)Cc2cccc(-c4cc(=O)cc(N5CCOCC5)o4)c2S3)C[C@H](C)O1")
54.1
>>> numeric_readout("Nc1nccc(Oc2ccc(NC(=O)c3c[nH]cc(-c4ccc(F)cc4)c3=O)cc2F)c1Cl")
70.5
>>> numeric_readout("O=C1NC(=O)[C@@H](c2cn3c4c(cccc24)CCC3)[C@@H]1c1c[nH]c2ccccc12 [ARQ 197 (Tivantinib)]")
25.6
>>> numeric_readout("COc1cc2c(Oc3ccc(NC(=O)C4(C(=O)Nc5ccc(F)cc5)CC4)cc3F)ccnc2cc1OCCCN1CCOCC1")
-0.6
>>> numeric_readout("CC(C)(C)c1cnc(CSc2cnc(NC(=O)C3CCNCC3)s2)o1")
0.161
>>> numeric_readout("Nc1nc(Nc2ccc(S(N)(=O)=O)cc2)nn1C(=O)c1c(F)cccc1F")
0.28
>>> numeric_readout("CCn1c(-c2nonc2N)nc2c(C#CC(C)(C)O)ncc(OC[C@H]3CCCNC3)c21")
33.9

----------
- Test system: 501Mel-GP cells (Dabrafenib-resistant)
- Test: Kinase inhibitor library screening, PrestoBlue cell viability, 1 or 10 μM, 72 h
- Measurement conditions: 501Mel GP; 1μΜ; 72 h; in %
Quantity measured: cell viability, 501Mel GP, 1μΜ

>>> numeric_readout("COc1cc2ncnc(Nc3cccc(Cl)c3)c2cc1OC [AG-1478 (Tyrphostin AG-1478)]")
102.7
>>> numeric_readout("CC(C)(C)c1cc(/C=C(\\C#N)C(N)=S)cc(C(C)(C)C)c1O [Tyrphostin AG 879 (AG 879)]")
110.4
>>> numeric_readout("Nc1ncnc2c1c(-c1cccc(OCc3ccccc3)c1)cn2C1CC(CN2CCCC2)C1 (centres unmarked) [NVP-ADW742]")
91.7
>>> numeric_readout("CCO.N#CC(=C(/N)Sc1ccccc1N)/C(C#N)=C(\\N)Sc1ccccc1N [U0126-EtOH]")
105.2
>>> numeric_readout("C=CC(=O)Nc1cccc(Oc2nc(Nc3ccc(N4CCN(C)CC4)cc3)ncc2Cl)c1 [WZ3146]")
102.6
>>> numeric_readout("CC(=O)Nc1cccc(-n2c(=O)n(C3CC3)c(=O)c3c(Nc4ccc(I)cc4F)n(C)c(=O)c(C)c32)c1 [GSK1120212 (Trametinib)]")
90.4
>>> numeric_readout("CCOc1cc2ncc(C#N)c(Nc3ccc(F)c(Cl)c3)c2cc1NC(=O)/C=C/CN(C)C [Pelitinib (EKB-569)]")
102.6
>>> numeric_readout("CN1CCN(c2ccc3nc(-c4c(N)c5c(F)cccc5[nH]c4=O)[nH]c3c2)CC1 [Dovitinib (TKI-258)]")
95.0
>>> numeric_readout("CC(C)(C)c1cc(C=C(C#N)C#N)cc(Br)c1O [AG-1024]")
109.0
>>> numeric_readout("COc1cc2ncnc(Nc3ccc(F)c(Cl)c3)c2cc1NC(=O)/C=C/CN1CCCCC1 [Dacomitinib (PF299804,PF-00299804)]")
106.7
>>> numeric_readout("C[C@@H]1CCN(C(=O)CC#N)C[C@@H]1N(C)c1ncnc2[nH]ccc12.O=C(O)CC(O)(CC(=O)O)C(=O)O [Tofacitinib citrate (CP-690550 citrate)]")
103.5
>>> numeric_readout("COc1cc2c(N3CCN(C(=O)Nc4ccc(OC(C)C)cc4)CC3)ncnc2cc1OCCCN1CCCCC1 [Tandutinib (MLN518)]")
103.5
>>> numeric_readout("N#C/C(=C\\c1ccc(O)c(O)c1)C(=O)NCc1ccccc1 [AG-490]")
105.8
>>> numeric_readout("CN(c1ncccc1CNc1nc(Nc2ccc3c(c2)CC(=O)N3)ncc1C(F)(F)F)S(C)(=O)=O [PF-00562271]")
98.0
>>> numeric_readout("CCOc1cc2ncc(C#N)c(Nc3ccc(OCc4ccccn4)c(Cl)c3)c2cc1NC(=O)/C=C/CN(C)C [Neratinib (HKI-272)]")
103.4
>>> numeric_readout("CC(O)C(=O)O.CC(O)C(=O)O.CN1CCN(c2ccc3nc(-c4c(N)c5c(F)cccc5[nH]c4=O)[nH]c3c2)CC1")
100.0
>>> numeric_readout("COc1cc2ncnc(Nc3cccc(Br)c3)c2cc1OC.Cl [PD153035 HCl]")
110.1
>>> numeric_readout("C#Cc1cccc(Nc2ncnc3cc(OCCOC)c(OCCO)cc23)c1 [Desmethyl Erlotinib (CP-473420)]")
107.4
>>> numeric_readout("C[C@@H]1CCN(C(=O)CC#N)C[C@@H]1N(C)c1ncnc2[nH]ccc12 [Tofacitinib (CP-690550, Tasocitinib)]")
104.8
>>> numeric_readout("C=CC(=O)Nc1cc2c(Nc3ccc(F)c(Cl)c3)ncnc2cc1OCCCN1CCOCC1 [CI-1033 (Canertinib)]")
102.8
>>> numeric_readout("O=C(NOCC1CC1)c1ccc(F)c(F)c1Nc1ccc(I)cc1Cl [CI-1040 (PD184352)]")
98.8
>>> numeric_readout("O=c1cc(N2CCOCC2)oc2c(-c3cccc4c3sc3ccccc34)cccc12 [NU7441(KU-57788)]")
93.7
>>> numeric_readout("CCN1CCN(Cc2ccc(-c3cc4c(N[C@H](C)c5ccccc5)ncnc4[nH]3)cc2)CC1 [AEE788 (NVP-AEE788)]")
114.3
>>> numeric_readout("CNC(=O)c1ccccc1Nc1nc(Nc2ccc(N3CCOCC3)cc2OC)ncc1Cl [NVP-TAE226]")
72.0
>>> numeric_readout("CCc1cc(Nc2nccc(-c3c(-c4ccc(OC)c(C(=O)Nc5c(F)cccc5F)c4)nc4ccccn34)n2)c(OC)cc1N1CCC(N2CCN(S(C)(=O)=O)CC2)CC1 [GSK1904529A]")
109.2
>>> numeric_readout("Cc1cnc(Nc2ccc(N3CCN(C)CC3)cc2)nc1Nc1cccc(S(=O)(=O)NC(C)(C)C)c1 [TG101209]")
109.4

----------
- System: 501Mel cells (parental)
- Test: Kinase inhibitor library screening, PrestoBlue cell viability, 1 or 10 μM, 72 h
- Measurement conditions: 501Mel Parental; 10μΜ; 72 h; in %
The following molecules are listed with their measured Cell viability in kinase inhibitor library screening, 501Mel Parental, 10μΜ values.
Quantity measured: Cell viability in kinase inhibitor library screening, 501Mel Parental, 10μΜ

>>> numeric_readout("CCCS(=O)(=O)Nc1ccc(F)c(C(=O)c2c[nH]c3ncc(Cl)cc23)c1F [PLX-4720]")
55.8
>>> numeric_readout("O=C1NC(=O)/C(=C/c2ccc(-c3ccc(F)cc3O)o2)S1 [AS-252424]")
97.9
>>> numeric_readout("O=C1NC(=O)/C(=C/c2ccc3c(c2)OC(F)(F)O3)S1 [AS-604850]")
104.4
>>> numeric_readout("CCn1c(=O)c(-c2cc[nH]n2)cc2c(C)nc(N)nc21 [XL765]")
98.4
>>> numeric_readout("CN1CCN(c2nc(C3=C(c4c[nH]c5ccccc45)C(=O)NC3=O)c3ccccc3n2)CC1 [Sotrastaurin (AEB071)]")
95.7
>>> numeric_readout("CO[C@H]1C[C@@H]2CC[C@@H](C)[C@@](O)(O2)C(=O)C(=O)N2CCCC[C@H]2C(=O)O[C@H]([C@H](C)C[C@@H]2CC[C@@H](OP(C)(C)=O)[C@H](OC)C2)CC(=O)[C@H](C)/C=C(\\C)[C@@H](O)[C@@H](OC)C(=O)[C@H](C)C[C@H](C)/C=C/C=C/C=C/1C [Deforolimus (Ridaforolimus)]")
82.7
>>> numeric_readout("Nc1nc(N)c2nc(-c3cccc(O)c3)c(-c3cccc(O)c3)nc2n1 [TG100-115]")
89.6
>>> numeric_readout("CC[C@@H]1C(=O)N(C)c2cnc(Nc3ccc(C(=O)NC4CCN(C)CC4)cc3OC)nc2N1C1CCCC1 [BI 2536]")
1.6
>>> numeric_readout("O=c1c(O)c(-c2ccc(O)c(O)c2)oc2cc(O)cc(O)c12 [Quercetin (Sophoretin)]")
94.0
>>> numeric_readout("COc1ccc(Cl)c(Nc2nc3ccccc3nc2NS(=O)(=O)c2cccc(NC(=O)C(C)(C)N)c2)c1 [XL147]")
91.9
>>> numeric_readout("COC[C@H]1OC(=O)c2coc3c2[C@@]1(C)C1=C(C3=O)[C@@H]2CCC(=O)[C@@]2(C)C[C@H]1OC(C)=O [Wortmannin]")
57.2
>>> numeric_readout("Cc1ccc(NC(=O)c2cccc(C(C)(C)C#N)c2)cc1Nc1ccc2ncn(C)c(=O)c2c1 [AZ628]")
64.1
>>> numeric_readout("Cc1nc(NC(=O)N2CCC[C@H]2C(N)=O)sc1-c1ccnc(C(C)(C)C(F)(F)F)c1 [BYL719]")
90.7
>>> numeric_readout("COc1ccc2c(c1OC)N=C(NC(=O)c1cccnc1)N1CCN=C21 [PIK-90]")
71.7
>>> numeric_readout("O=c1cc(N2CCOCC2)oc2c(-c3ccccc3)cccc12 [LY294002]")
86.8
>>> numeric_readout("O=C1NC(=O)/C(=C\\c2ccc3nccnc3c2)S1 [AS-605240]")
92.3
